Tested on: bloodstream-form Trypanosoma brucei
assay-comment: Activity against bloodstream-form Trypanosoma brucei (Alamar Blue growth inhibition)
Assay type: cell-based, Trypanosoma brucei (strain 427)
stated-conditions: ratio of IC50 values obtained with L6 cells and T. brucei
Overview of reported S.I. (selectivity index) across a group of compounds:
metric-name: S.I. (selectivity index)

O=C(NCCCn1cnc([N+](=O)[O-])n1)c1ccc(C23CC4CC(CC(C4)C2)C3)cc1 = 123
O=C(CCc1ccc(C23CC4CC(CC(C4)C2)C3)cc1)NCCn1cnc([N+](=O)[O-])n1 = 114
O=C(NCCn1cnc([N+](=O)[O-])n1)c1ccc(C23CC4CC(CC(C4)C2)C3)cc1 = 120
O=C(NCCc1ccc(C2C3CC4CC(C3)CC2C4)cc1)c1ccc([N+](=O)[O-])o1 (centres unmarked) = 42
O=C(CCc1ccc(C23CC4CC(CC(C4)C2)C3)cc1)NCCCn1cnc([N+](=O)[O-])n1 = 134
O=C(Cc1ccc(C23CC4CC(CC(C4)C2)C3)cc1)NCCCn1cnc([N+](=O)[O-])n1 = 96
O=C(Nc1ccc(C2C3CC4CC(C3)CC2C4)cc1)c1ccc([N+](=O)[O-])o1 (centres unmarked) = 4
O=C(Cn1cnc([N+](=O)[O-])n1)Nc1ccc(C23CC4CC(CC(C4)C2)C3)cc1 = 35

---

assay-comment: Cytotoxicity on THP-1-derived macrophages (MTT assay)
Type: cell-based
stated-conditions: human, THP-1-derived macrophages (PMA-differentiated), value or interval
metric-name: CC50 at 72 h

O=C(NCCc1ccc(C2C3CC4CC(C3)CC2C4)cc1)c1ccc([N+](=O)[O-])o1 (stereo not drawn) [2c] = 3.13 to 12.5 µM
O=C(Cn1ccnc1[N+](=O)[O-])NCCc1ccc(C23CC4CC(CC(C4)C2)C3)cc1 [3c] = 50 to 100 µM
O=C(CCc1ccc(C23CC4CC(CC(C4)C2)C3)cc1)NCCn1cnc([N+](=O)[O-])n1 [6c] = > 100 µM
O=C(Cn1ccnc1[N+](=O)[O-])NCCc1ccc(C2C3CC4CC(C3)CC2C4)cc1 (stereo not drawn) [4c] = > 50 µM
O=C(Cn1ccnc1[N+](=O)[O-])NCc1ccc(C2C3CC4CC(C3)CC2C4)cc1 (stereo not drawn) [4b] = > 100 µM
O=C(Cn1ccnc1[N+](=O)[O-])Nc1ccc(C23CC4CC(CC(C4)C2)C3)cc1 [3a] = 25 to 100 µM
O=C(CCc1ccc(C23CC4CC(CC(C4)C2)C3)cc1)NCCCn1cnc([N+](=O)[O-])n1 [6f] = 50 to 100 µM
O=C(NCc1ccc(C23CC4CC(CC(C4)C2)C3)cc1)c1ccc([N+](=O)[O-])o1 [1a] = > 100 µM
O=C(Nc1ccc(C23CC4CC(CC(C4)C2)C3)cc1)c1ccc([N+](=O)[O-])o1 [7a] = 6.25 to 25 µM
O=C(Nc1ccc(C2C3CC4CC(C3)CC2C4)cc1)c1ccc([N+](=O)[O-])o1 (stereo not drawn) [2a] = 1.56 to 6.25 µM
O=C(Cc1ccc(C23CC4CC(CC(C4)C2)C3)cc1)NCCCn1ccnc1[N+](=O)[O-] [5b] = 50 to 100 µM
O=C(NCc1ccc(C2C3CC4CC(C3)CC2C4)cc1)c1ccc([N+](=O)[O-])o1 (stereo not drawn) [2b] = 12.5 to 25 µM

Value source: paper PMC12679539
